Values from patent EP0025288A1

Reported concentration at 3 h values for a set of compounds
Assay: Mean serum concentration in neonatal piglets after intramuscular or oral administration
Format: in vivo
Settings: pig, po, 50 mg/kg, 3h
Description: e) Mean serum concentration in neonatal piglets of Examples 4 and 5 after intramuscular or oral administration at 50 mg/kg Blood levels were assessed in neonatal piglets (2 to 4 animals per group and man bodyweights about 2 kg). The dose was 50 mg/kg (dose solution = 25 mg/ml in 25% ethanol). Doses were given by intramuscular injection and orally by stomach tube. Piglets were bled at intervals up to 8 and at 24 hours, and serum assayed microbiologically (B. subtilis ATCC 6633).

# compound, concentration at 3 h / ng/mL
rows = [
    ("CC(=CC(=O)OCCCC(=O)c1cccs1)CC1OCC(CC2OC2C(C)C(C)O)C(O)C1O (centres unmarked) [Example 4, 4(1-Thienyl-2-ylbutan-1-onyl) monate A]", 1400),
    ("CC(=CC(=O)OCCCC(=O)c1ccccc1)CC1OCC(CC2OC2C(C)C(C)O)C(O)C1O (centres unmarked) [Example 5, 4-Phenylbutan-4-onyl monate A]", 160),
]
